# System: corn (Zea mays)
# Assay Remarks: Test C preemergence
# Type: in vivo
# Condition Summary: Zea mays, pre-emergence, 336 h; 125 g ai/ha, preemergence; scale 0 to 100
molecules and their reported Corn plant response rating (crop injury, 0 = no effect, 100 = complete kill) at 125 g/ha

Sample answers from the record:
| Entry Smiles | Recorded Measurement |
| --- | --- |
| Fc1cccc(Oc2ncc(Cl)cn2)c1Oc1ncc(C(F)(F)F)cn1 | 90% |
| Fc1cccc(Oc2ncc(C(F)(F)F)cn2)c1Oc1ncc(Cl)cn1 | 85% |
| Fc1cnc(Oc2c(F)ccc(F)c2Oc2ncc(F)cn2)nc1 | 65% |
| Fc1cccc(Oc2ncc(Cl)cn2)c1Oc1ncc(Br)cn1 | 60% |

Now look at this entry.
## Input Could you share which Corn plant response rating (crop injury, 0 = no effect, 100 = complete kill) at 125 g/ha value was measured for Fc1cnc(Oc2c(Br)cccc2Oc2ncc(Cl)cn2)nc1 ?
## Output 80%

* * *

# Tested on: large (Lg) crabgrass (Digitaria sanguinalis)
# Assay Remarks: Test C preemergence
# Type: in vivo
# Condition Summary: Digitaria sanguinalis, pre-emergence, 336 h; Preemergence, 16 g ai/ha; scale 0 to 100; read-out: Plant response rating, Crabgrass, Large
compounds and their reported pest or weed control at 16 g/ha
The reply should be a number in %, with the unit left off.

| Entry Smiles | pest or weed control at 16 g/ha, % |
| --- | --- |
| Fc1cnc(Oc2c(F)ccc(F)c2Oc2ncc(F)cn2)nc1 | 95 |
| FC(F)c1cccc(Oc2ncc(Cl)cn2)c1Oc1ncc(Cl)cn1 | 100 |
| Fc1cccc(Oc2ncc(Cl)cn2)c1Oc1ncc(Cl)cn1 | 98 |

## Input Could you share which pest or weed control at 16 g/ha value was measured for N#Cc1cccc(Oc2ncc(C(F)(F)F)cn2)c1Oc1ncc(Cl)cn1 ?
## Output 100

* * *

# Test system: soybean (Glycine max)
# Assay Remarks: Test C postemergence
# Assay type: in vivo
# Condition Summary: Glycine max, post-emergence; Postemergence, 62 g ai/ha, scale 0 to 100; read-out: Plant response rating, Soybean
compounds and their reported plant injury at 62 g/ha
State the result as a value with its unit after it.

| Compound | Recorded Measurement |
| --- | --- |
| Fc1cnc(Oc2c(Cl)cccc2Oc2ncc(Cl)cn2)nc1 [Compound 18] | 85% |
| Fc1cnc(Oc2c(F)cccc2Oc2ncc(Cl)cn2)nc1 [Compound 23] | 65% |
| N#Cc1cccc(Oc2ncc(Cl)cn2)c1Oc1ncc(Cl)cn1 [Compound 3] | 90% |
| Clc1cnc(Oc2cccc(Cl)c2Oc2ncc(Br)cn2)nc1 [Compound 17] | 80% |
| Fc1cccc(Oc2ncc(Cl)cn2)c1Oc1ncc(Cl)cn1 [Compound 21] | 95% |

## Input Could you share which plant injury at 62 g/ha value was measured for Fc1cccc(Oc2ncc(Cl)cn2)c1Oc1ncc(C(F)(F)F)cn1 [Compound 43] ?
## Output 75%

* * *

# System: speedwell (bird's-eye speedwell, Veronica persica)
# Assay Remarks: Test D postemergence
# Type: in vivo
# Condition Summary: 16 g ai/ha, scale 0 to 100
Measured Metric: Plant response rating, Speedwell
Please reply with the value in numeric form only.

Sample answers from the record:
| Molecule | Plant response rating, Speedwell |
| --- | --- |
| Fc1cnc(Oc2c(Br)cccc2Oc2ncc(Cl)cn2)nc1 [Compound 22] | 30 |
| FC(F)(F)c1cnc(Oc2c(Br)cccc2Oc2ncc(Cl)cn2)nc1 [Compound 24] | 35 |
| N#Cc1cccc(Oc2ncc(Cl)cn2)c1Oc1ncc(Cl)cn1 [Compound 3] | 85 |

Now look at this entry.
## Input What reported Plant response rating, Speedwell corresponds to Fc1cnc(Oc2c(F)cccc2Oc2ncc(Cl)cn2)nc1 [Compound 23] on speedwell (bird's-eye speedwell, Veronica persica)?
## Output 40
